system: SNB-75 CNS; assay: NCI tumour cell line growth inhibition, 48 h
Parameter GI50: see the listing below.

> print(dat)
                         chemical.structure  subject.of.test  endpoint.value
1  [O-]c1ccccc1C=Nc1ccc2c(c1)CCC2.[O-]c1ccccc1C=Nc1ccc2c(c1)CCC2.[O]=[U+2]=[O]       SNB-75 CNS         82.7 µM

The measured GI50 associated with Cn1cccc1-c1cc(-c2ccccc2)[nH]c(=O)c1C#N reads 45.1 µM

Entry COc1cc2ncnc(-n3ncc4cc(NC(=O)Nc5ccc(Cl)c(Cl)c5)ccc43)c2cc1OC , GI50 reported as 1.24 µM

GI50 reported for this molecule COc1cccc(CN(C)c2ccc(CO)c(Cl)c2)c1 : 22.2 µM

Form field GI50, entry CCN1CCN(c2cc(C)nc(N(CCCNc3ccnc4cc(Cl)ccc34)Cc3ccc4c(c3)OCO4)n2)CC1 : 1.59 µM

----------
In this section, each of the compounds is paired with its reported TGI.
system: SW-620 colon; experiment: NCI tumour cell line growth inhibition, 48 h

> print(dat)
                                   compound  endpoint.value
1  NC(=O)c1cc(N(CCO)CCO)c([N+](=O)[O-])cc1[N+](=O)[O-]        > 100 µM

Below: the item to evaluate.
Form field TGI, entry Cc1c(C(=O)/C=C/C=C/c2ccccc2)[n+](=O)c2ccccc2n1[O-] : > 100 µM

----------
test system: PC-3 prostate; experiment: NCI tumour cell line growth inhibition, 48 h
observed property: TGI

> print(dat)
                         chemical.structure  observed.property  endpoint.value
1      COC(=O)NNC(c1ccc(Cl)cc1)c1ccc(Cl)cc1                TGI         30.5 µM
2             CCCn1cnc2c(SCC(=O)O)nc(N)nc21                TGI        > 100 µM
3  O=S(=O)(O)c1cccc2cccc(N=Nc3c(O)ccc4ccccc34)c12                TGI        > 100 µM
4               C#CCNC(=S)N/N=C(\C)c1ccccn1                TGI        > 100 µM

Data point: [O-][n+]1c(CN2CCCCC2)nc2cccc3c2c1-c1ccccc1-3 ; TGI = > 100 µM

Input O=C(Nc1ccc(F)cc1F)c1cc(Cl)ccc1O . Output TGI: 41.2 µM

----------
test system: COLO 205 colon; assay: NCI tumour cell line growth inhibition, 48 h; in the data active = GI50 below about 0.43 µM; inactive = the rest
Valid outcomes are listed here; reply with one: active, inactive

> print(dat)
                                   compound  label.value
1  O=S1(=O)N(Cc2ccccc2)[C@@H](Cc2ccccc2)[C@H](O)[C@H](O)[C@H](Cc2ccccc2)N1Cc1ccccc1     inactive
2  Cc1cc(Nc2nc(C(=O)Nc3ccccc3)nc3ccccc23)n[nH]1     inactive
3  CCCCCCCCOC(=O)c1c(C)[nH]c(/C=C2\N=C(c3ccc[nH]3)C=C2OC)c1C       active
4        CCN(Cc1cc(F)ccc1F)c1ccc(CO)c(Cl)c1     inactive
5  COc1cc2ncnc(-n3ncc4cc(NC(=O)Nc5ccc(Cl)c(Cl)c5)ccc43)c2cc1OC     inactive

Short answer needed: outcome of this test for CN(Cc1ccc(C(F)(F)F)cc1)CC(O)C(=O)Nc1ccc(Cl)cc1 (stereo not drawn) ?
inactive

// outcome(item) with item = CCC(C)Oc1nc2c(c(=O)n(C)c(=O)n2C)n1C (stereo not drawn)
inactive

Please let me know the test result on file for Oc1c(Cl)cc(Cl)c2ccc(Cn3cc(-c4cc(C(F)(F)F)cc(C(F)(F)F)c4)nn3)nc12 .
inactive
